# Target desc: Relaxin receptor 1 (Homo sapiens)
# Experimental protocol: qHTS Assay for Agonists of the Relaxin Receptor RXFP1: RXFP1 Hit Validation; further: nearly all actives have a fitted effect of over 65% in size;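 on activation: cAMP rise lowers the TR-FRET signal in lysed cells with PDE4 inhibitor present; 0% = buffer-only basal and 100% = 29 nM porcine relaxin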
# Measurement parameters: HEK293T-RXFP1 cAMP TR-FRET, 30 min; series mostly up to 115 µM
Inconclusive results are not listed. Calls of active or inactive are those of the source. The call rests on the fitted dose curve; in most records, active means well fitted activation curve with a large enough effect; inconclusive means small, poorly fitted or top-dose-only effect; inactive means no such curve, though single readings can be large or run the other way.
I would appreciate it if you answered using one of these outcomes: 1 for active, -1 for inactive

# count of solved cases: 8
# Compound, Target desc, Assigned category
records = [
    ("Cc1ccc(C(=O)Nc2ccccc2C(N)=O)o1", "Relaxin receptor 1 (Homo sapiens)", -1),
    ("Nc1nnc(CC(=O)N/N=C/c2ccc(-c3ccc(Cl)cc3Cl)o2)s1", "Relaxin receptor 1 (Homo sapiens)", -1),
    ("O=C(Oc1ccccc1)Oc1ccc2c(c1)oc(=O)c1ccccc12", "Relaxin receptor 1 (Homo sapiens)", 1),
    ("COc1ccc(S(=O)(=O)Nc2ccccn2)c(C)c1C", "Relaxin receptor 1 (Homo sapiens)", -1),
    ("COc1ccc(CN2C(=O)c3cccnc3C2=O)cc1S(=O)(=O)NC1CCCCC1", "Relaxin receptor 1 (Homo sapiens)", 1),
    ("Cc1cc2c(SCC(=O)NCC3CCCO3)ncnc2s1 (stereo unspecified)", "Relaxin receptor 1 (Homo sapiens)", -1),
    ("O=C(O)c1ccc(N2C(=O)c3cccc4c(C(=O)O)ccc(c34)C2=O)cc1", "Relaxin receptor 1 (Homo sapiens)", -1),
    ("COCCNC(=O)C(OC(=O)c1nsc(Cl)c1Cl)C(C)C (stereo unspecified)", "Relaxin receptor 1 (Homo sapiens)", -1),
]

Fill in: this test's call for `COc1ccc(/C=C2/SC(=O)N(CC(=O)Nc3cc(C)on3)C2=O)cc1OC` is ___
-1

Fill in: this test's call for `O=C(Nc1ccccc1C(=O)NCc1ccco1)c1ccccc1` is ___
-1

Fill in: this test's call for `O=C(OCc1nc2ccsc2c(=O)[nH]1)c1cccc(S(=O)(=O)N2CCOCC2)c1` is ___
1
